Experiment: total protein half-life in vivo (active degradation + dilution); higher = more stable protein
Conditions: E. coli NCM3722 delta-clpP delta-lon delta-hslV; growth: N-lim chemostat; doubling time 6 h
# reported total protein half-life in vivo; entries follow
Please reply with the bare figure in h and do not write the unit itself.

Would you please look over these solved cases?
| Record sequence | Observation type | Readout number |
| --- | --- | --- |
| MTLKELLVGFGTQVRSIWMIGLHAFAKRETRMYPEEPVYLPPRYRGRIVLTRDPDGEERCVACNLCAVACPVGCISLQKAETKDGRWYPEFFRINFSRCIFCGLCEEACPTTAIQLTPDFEMGEYKRQDLVYEKEDLLISGPGKYPEYNFYRMAGMAIDGKDKGEAENEAKPIDVKSLLP [P0AFD6] | total protein half-life in vivo | 6.29 |
| MGIFKAKNPCTKNTIFTTSNTLIYGGFMISLNDFYEQICRKRRDLAYHMSECEWAVDTDVLEEDHPEIRIELGRMREQFWSSEKIGTRVRLYSCDVPWETRHHTVNGQLEIKEEYTELYDPAQECWKNLSSNLTKETFLPLVIEPFSINDIFKAHLMFASISFFWGKSIMSENENVAFKAFHRAAELFDKCIGMTWFNISVCNQKKLSEVRRSAGKKGGKSKAEVYHIIQLKLVELINDSVPNDGWKNKVVAVNELIEPLWDFIQMSEFEINNQNKKYRVATMSQDALVDTILNQWSLKNEDVKQAFDSAVRRKKRSK | total protein half-life in vivo | 5.49 |

We now examine a further sequence.
*Q* I would be grateful if you could share the reported total protein half-life in vivo for MYRIVLGKVSTLSAAPLPPGLREQAPQGPRRERWLAGRALLSHTLSPLPEIIYGEQGKPAFAPEMPLWFNLSHSGDDIALLLSDEGEVGCDIEVIRPRANWRWLANAVFSLGEHAEMDAVHPDQQLEMFWRIWTRKEAIVKQRGGSAWQIVSVDSTYHSSLSVSHCQLENLSLAICTPTPFTLTADSVQWIDSVN .
*A* 4.86

###

# reported total protein half-life in vivo; entries follow
Test: total protein half-life in vivo (active degradation + dilution); higher = more stable protein
Details: wild type E. coli NCM3722; growth: N-lim chemostat; doubling time 6 h
Reply with the number and its unit after it.

Would you please look over these solved cases?
| Record sequence | total protein half-life in vivo |
| --- | --- |
| MARINRISITLCALLFTTLPLTPMAHASKQARESSATTHITKKADKKKSTATTKKTQKTAKKAASKSTTKSKTASSVKKSSITASKNAKTRSKHAVNKTASASFTEKCTKRKGYKSHCVKVKNAASGTLADAHKAKVQKATKVAMNKLMQQIGKPYRWGGSSPRTGFDCSGLVYYAYKDLVKIRIPRTANEMYHLRDAAPIERSELKNGDLVFFRTQGRGTADHVGVYVGNGKFIQSPRTGQEIQITSLSEDYWQRHYVGARRVMTPKTLR | 2.63 h |
| MTQGAVKTTGKRSRAVSAKKKAILSAALDTFSQFGFHGTRLEQIAELAGVSKTNLLYYFPSKEALYIAVLRQILDIWLAPLKAFREDFAPLAAIKEYIRLKLEVSRDYPQASRLFCMEMLAGAPLLMDELTGDLKALIDEKSALIAGWVKSGKLAPIDPQHLIFMIWASTQHYADFAPQVEAVTGATLRDEVFFNQTVENVQRIIIEGIRPR [P0ACU2] | 5.39 h |

We now examine a further sequence.
*Q* I would be grateful if you could share the reported total protein half-life in vivo for MSLINTKIKPFKNQAFKNGEFIEITEKDTEGRWSVFFFYPADFTFVCPTELGDVADHYEELQKLGVDVYAVSTDTHFTHKAWHSSSETIAKIKYAMIGDPTGALTRNFDNMREDEGLADRATFVVDPQGIIQAIEVTAEGIGRDASDLLRKIKAAQYVASHPGEVCPAKWKEGEATLAPSLDLVGKI [P0AE08] .
*A* 2.03 h

Data credit: the supplement of paper PMC11246515
